B1: Zinc finger homeobox protein 3, residues 2643 to 2698; numbered along this chain, Q15911 (parent)
chain: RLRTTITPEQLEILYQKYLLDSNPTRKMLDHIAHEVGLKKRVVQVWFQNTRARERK

variants of: B1; experiment: abundance fitness (aPCA) (normalised: wild type 0, dead -1); higher = more abundant; growth selection in yeast, the domain comes from the species named; conditions: Homo sapiens
Mark NOT MET for abundance fitness values under -0.2, and MET for everything at or above.

| VARIANT DESCRIPTION | CLASS |
| --- | --- |
| I6G | NOT MET |
| Q44G | MET |
| K27I | MET |

Then there is this variant:
Query: Kindly determine if abundance fitness recorded for H34A is above or exactly -0.2.
Response: MET
